Recorded protein stability index by entry
# assay.procedure: protein stability index of a GFP-peptide fusion (GPS, HEK-293T) (PSI 1-6); higher = more stable;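 further: 24-mer peptide tiles fused after GFP, lentivirally expressed, FACS-sorted into six equal bins by GFP/DsRed ratio, decoded by Illumina sequencing, PSI is the read-weighted mean bin number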
# condition.context: treatment: DMSO; c terminus: a fixed tail appended
Write the number on its own, no unit after it.

NQILMEKYLKLQDTCRTQLVWLVR [INTS3]; 2.02
LLAPEAGSHPQQTQKLEEIKENAQ [TOR1AIP2]; 5.44
NRSDHGIFHSRTSLQKLSTKLSAQ [FCHSD1]; 3.43
LQSISWDPEDFEDAWKRPDALPGQ [TLE6]; 3.98
VMFQRRYYKPGLLMMCFILPTLVP [SCD]; 3.51
LLGWGYYLIMLPFRFTYYTILDIF [FAF2]; 4.59

Report measured protein stability index; entry is ELPDPLGGLLDEAMLDEISLMDLA [NFE2L1]
4.26

Dear colleague, please send me the reported protein stability index for DDSSSESGSGNGSSTLNPSTSSST [NOL4L] when you can.
5.57

Return the recorded protein stability index value; entry: KYDMEVRVQKTSKELEDMNQKLFD [TNNI2]
4.81

Using the record for LKKIKEKDKENKFLCVLMSDWFNF [CLK3] , state its measured protein stability index.
2.14

Give the measured protein stability index for MAAVLNAERLEVSVDGLTLSPDPE [ACBD3]
4.41

Provide measured protein stability index value, entry: MLESPGAPCRSAQASVSCALEALE [HDAC6]
3.35

###

# assay.procedure: protein stability index of a GFP-peptide fusion (GPS, HEK-293T) (PSI 1-6); higher = more stable
# condition.context: treatment: MLN4924 1 uM, 8 h; c terminus: a fixed tail appended
Parameter threshold = 3. Response is 1 when protein stability index meets or exceeds it, else -1.

Worked set:
QQFRADPSTASLLLCPGGLDHKLN [TIAF1]; 1
LGLRQHHCRKCGQAVCGKCSSKRS [WDFY1]; 1
TFYVRFFLTYVPLLGLKAFLGLFF [FADS1]; 1

Entry GLGASTAEISARTMQSMFAKNFHV [PTPRD] : is its protein stability index no less than 3?
-1

Is protein stability index for TTFRGHTGGVTALCWDPVQRVLFS [WDFY2] at or above 3?
-1

Given LGDSGLGPWQLNVFVCRVSAVLFY [P2RY14] , state whether its protein stability index is at least 3.
-1

###

Entries annotated with measured protein stability index
# assay.procedure: protein stability index of a GFP-peptide fusion (GPS, HEK-293T) (PSI 1-6); higher = more stable
# condition.context: treatment: DMSO; c terminus: a fixed tail appended
Note: the reply should be a number with no unit written.

Example sequences with recorded protein stability index:
GAFGIVHLCLRKADQKLVIIKQIP [NEK8]; 2.55
PPVMPGMPPGLHHQRKYTQSFCGE [ZNF207]; 3.76

Attention now turns to another entry.
Determine from records and report protein stability index for LAIKKQQHIDNITQIEDATEKLKA [TRIM14]
4.41

###

# assay.procedure: protein stability index of a GFP-peptide fusion (GPS, HEK-293T) (PSI 1-6); higher = more stable
# condition.context: treatment: MLN4924 1 uM, 8 h; c terminus: a fixed tail appended
Readings of protein stability index for the listed sequences

Consider the worked cases shown below.
KNDGRIDAQEIMQSLRDLGVKISE [SLC25A25]; 3.29
MQGAYCTFPASVLAPVPTHSTVSE [DUSP5]; 3.61
VHQRGSSTAKKEDINLSVRKLLNR [TRIP13]; 3.87

Tell us which protein stability index value is on record for VEMLCDQAWGSMLEVPAGSRLNLT [CCDC3]
2.96

Supply reported protein stability index belonging to this sequence: TLGQAWQGYVSDIRRFLSAFHEPQ [DFFB]
2.04

Report protein stability index, nothing else, for this sequence: YAKVKEFIVDILQFLDIGPDVTRV [MATN2]
3.81

Identify measured protein stability index associated with TFLPYTFSLMVTFPDVPLGIFLFC [TMEM175]
2.98

###

# assay.procedure: protein stability index of a GFP-peptide fusion (GPS, HEK-293T) (PSI 1-6); higher = more stable
# condition.context: treatment: DMSO; c terminus: a fixed tail appended
// thresholds for protein stability index classes: small value: < 3; mid value: ≥ 3 and < 4; large value: ≥ 4

KHFLEAIENNKYGWFWVCPGGGDI [ZC3H15]; small value
LVGLATAAFGHVQRAEMLPKTSGT [CPOX]; small value
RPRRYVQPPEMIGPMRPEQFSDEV [GAGE1]; mid value
PHYELCTLRGTGATADFADVADDF [NETO1]; large value
ALLPSLSHCSQLTTLSFYGNSISI [PRAME]; mid value

Shifting focus to the sequence that follows.
Which protein stability index band matches LWWDPIQRLLFSGASDNSIIMWDI [WDFY1] ?
small value

###

# assay.procedure: protein stability index of a GFP-peptide fusion (GPS, HEK-293T) (PSI 1-6); higher = more stable
# condition.context: treatment: MLN4924 1 uM, 8 h; c terminus: a fixed tail appended
As shown below, each of these sequences has a reported protein stability index value.
The reply should be a number, written without any unit.

Solved entries:
IAGNKCDLIDVREVMERDAKDYAD [RAB22A]; 5.06
RLVDRDSVWGYDLGLRSLIPAVLT [MYORG]; 2.28
PGNRTCTGTSKRYQLCRVQECPPD [ADAMTSL2]; 3.69
QARAELTAQHQRRLAAIAQEKDQE [FBF1]; 5.2

Continue with the sequence presented below.
Answer with the recorded protein stability index for the sequence listed here: AAQDRPMSPGDCPPETTETPKCSS [YJU2B]
5.3

###

# assay.procedure: protein stability index of a GFP-peptide fusion (GPS, HEK-293T) (PSI 1-6); higher = more stable
# condition.context: treatment: MLN4924 1 uM, 8 h; c terminus: a fixed tail appended
assay.endpoint: protein stability index
Give the value as a plain number.

In the examples that follow, each entry is paired with its recorded protein stability index.
LEMRRRCTWSIFQSIEYAGQQDQV [PPEF2]; 2.25
GLLEAPGLQPVVFVLFLFAYLVTV [OR3A1]; 2.61

Give reported protein stability index value for CMVEIVQKYDPDKDEWHKVFDLPE [KLHL13]
2.59

Hello, please tell me recorded protein stability index for this one: VASCMHRQETVDCLKKFNARRKLK [CAMK2A]
4.03

Could you please provide reported protein stability index for LSRLSVNSVTAGDYSRPLHISTFI [TSN] ? Thanks!
2.31

###

# assay.procedure: protein stability index of a GFP-peptide fusion (GPS, HEK-293T) (PSI 1-6); higher = more stable
# condition.context: treatment: DMSO; c terminus: a fixed tail appended
assay.endpoint: protein stability index
Response field accepts a number only; no unit should be typed.

Below, each entry is followed by its recorded protein stability index result.
RYLFLDGDSHYEIEIVHISTVQIL [ZFYVE21]; 2.89
GFIRHTVNKITFSEQCYYIFGDLC [DVL3]; 3.11
ETAVEGDPSGVSGATVGRKSRRSR [C18orf25]; 5.48

Now for the sequence whose protein stability index we want.
Determine its reported protein stability index: KKTCRRINYCALNKPGCEHECVNM [MATN2]
2.8

###

# assay.procedure: protein stability index of a GFP-peptide fusion (GPS, HEK-293T) (PSI 1-6); higher = more stable
# condition.context: treatment: DMSO; c terminus: a fixed tail appended
assay.endpoint: protein stability index

EGASSQIGRAAGTGFTVNVAWNGP [HDAC6]; 3.13
LEKNHPEEFCEFVKSNTEQMREAF [ZBED1]; 4.58
MKAKQEALVKEREKQLAKKEQSKE [FAM50A]; 5.62
SDRFGRKKVYLTGFALDILFAIAN [SLC22A15]; 2.51
SPAQQVPKNPALEAFLAQFSQLED [TOR1AIP2]; 4.26

Please report protein stability index for the following sequence: KEHAVTMPCTWVMACAYAPSGCAI [GNB5]
2.8

Tell me protein stability index reported for ADEGSRNSRFQMLFTSFQEPPCEG [NETO1]
3.98

// fetch protein stability index given entry KPEAPLHLPVTFPGKDYDADRQCQ [ADAMTS4]
5.05

Please list protein stability index recorded for the sequence KWLLWTEHQYRLPPMGKAFQELAG [SPDEF]
2.44

Supply reported protein stability index belonging to this sequence: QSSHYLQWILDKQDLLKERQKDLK [CCNC]
2.87

Dear colleague, please send me the reported protein stability index for DTRVYIWDPHNGDILMEFGHLFPP [WSB1] when you can.
2.38

Input QLRFQHSQDVSDCYLELFPAHLYF [PLEKHN1] , output reported protein stability index.
2.32

# return recorded protein stability index for input TFWKEDKAFWKEDNALWERDRNLL [CCDC70]
2.95

###

Below, each entry is listed with its recorded protein stability index.
# assay.procedure: protein stability index of a GFP-peptide fusion (GPS, HEK-293T) (PSI 1-6); higher = more stable
# condition.context: treatment: DMSO; c terminus: a fixed tail appended
Please give only the number in your answer, with no unit.

Solved entries:
RGEGIQAPSFSSYLYFLFCPTLIY [SOAT2]; 3.49
RFVQAEGRRATLQRLVEALEENEL [TRADD]; 3.57

Return reported protein stability index. Input sequence: GEARFLPKDLDPSLCTHLIYAFAG [CHIT1]
2.36

Give a short answer stating reported protein stability index for LTNSNLPEEELDFFEILRLFFPVI [CNOT7] .
2.39

Recall and state the measured protein stability index for RDRQQAPGLGQESKAPGSCDPGTD [TLE6] .
5.45

Provide only the value of recorded protein stability index for LRAELQGHHAEKLPAGAGAPKAGL [TNFSF13B]
4.34

Give protein stability index for KMAVSRHLTRGRKMAHVIAACLYL [BRF1]
2.81
